SYSTEM_NAME: Renin (Homo sapiens)
ASSAY_REMARKS: In vitro inhibition of human plasma renin.
Format: cell-free
I'd appreciate it if you could supply pIC50 values for the items below.
Please keep in mind that pIC50 is minus log10 of the molar concentration; only the number is needed.

Per the records, this compound ( CC(C)(C)OC(=O)N[C@@H](Cc1ccccc1)C(=O)N[C@@H](Cc1c[nH]cn1)C(=O)N[C@@H](CC1CCCCC1)[C@@H](O)[C@@H]1CN(CCO)C(=O)O1 ) has pIC50 equal to 8.13

Per the records, this compound ( CC(C)(C)OC(=O)N[C@@H](Cc1ccccc1)C(=O)N[C@@H](Cc1cnc[nH]1)C(=O)N[C@@H](CC1CCCCC1)[C@@H](O)[C@@H]1CNC(=O)O1 ) has pIC50 equal to 7.60

Per the records, this compound ( C[C@@H]1CO[C@H]([C@H](O)[C@H](CC2CCCCC2)NC(=O)[C@H](Cc2c[nH]cn2)NC(=O)[C@H](Cc2ccccc2)NC(=O)OC(C)(C)C)C1 ) has pIC50 equal to 8.52

Per the records, this compound ( CON1C[C@@H]([C@H](O)[C@H](CC2CCCCC2)NC(=O)[C@H](Cc2cnc[nH]2)NC(=O)[C@H](Cc2ccccc2)NC(=O)OC(C)(C)C)OC1=O ) has pIC50 equal to 8.04

Per the records, this compound ( C=C1C[C@@H]([C@H](O)[C@H](CC2CCCCC2)NC(=O)[C@H](Cc2c[nH]cn2)NC(=O)[C@H](Cc2ccccc2)NC(=O)OC(C)(C)C)OC1=O ) has pIC50 equal to 7.68

Per the records, this compound ( CCON1C[C@@H]([C@H](O)[C@H](CC2CCCCC2)NC(=O)[C@H](Cc2cnc[nH]2)NC(=O)[C@H](Cc2ccccc2)NC(=O)OC(C)(C)C)OC1=O ) has pIC50 equal to 7.77

----------
SYSTEM_NAME: Renin (Homo sapiens, UniProt P00797)
ASSAY_REMARKS: In vitro inhibition of purified human renal renin.
IC50 strictly less than 1 nM = True. Otherwise False.

Qu. Is IC50 of CC(C)ON1C[C@@H]([C@H](O)[C@H](CC2CCCCC2)NC(=O)[C@H](Cc2c[nH]cn2)NC(=O)[C@H](Cc2ccccc2)NC(=O)OC(C)(C)C)OC1=O strictly below 1 nM?
Ans. False

Qu. Is IC50 of CC(C)(C)OC(=O)N[C@@H](Cc1ccccc1)C(=O)N[C@@H](Cc1c[nH]cn1)C(=O)N[C@@H](CC1CCCCC1)[C@@H](O)[C@@H]1CCNC(=O)O1 strictly below 1 nM?
Ans. False

Qu. Is IC50 of CCN1C[C@@H]([C@H](O)[C@H](CC2CCCCC2)NC(=O)[C@H](Cc2cnc[nH]2)NC(=O)[C@H](Cc2ccccc2)NC(=O)OC(C)(C)C)NS1(=O)=O strictly below 1 nM?
Ans. False

Qu. Is IC50 of CC(C)N1C[C@@H]([C@H](O)[C@H](CC2CCCCC2)NC(=O)[C@H](Cc2cnc[nH]2)NC(=O)[C@H](Cc2ccccc2)NC(=O)OC(C)(C)C)OC1=O strictly below 1 nM?
Ans. True

Qu. Is IC50 of C[C@H]1C[C@@H]([C@H](O)[C@H](CC2CCCCC2)NC(=O)[C@H](Cc2c[nH]cn2)NC(=O)[C@H](Cc2ccccc2)NC(=O)OC(C)(C)C)OC1=O strictly below 1 nM?
Ans. True

Qu. Is IC50 of CON1C[C@@H]([C@H](O)[C@H](CC2CCCCC2)NC(=O)[C@H](Cc2cnc[nH]2)NC(=O)[C@H](Cc2ccccc2)NC(=O)OC(C)(C)C)OC1=O strictly below 1 nM?
Ans. True

Qu. Is IC50 of CN1C[C@@H]([C@H](O)[C@H](CC2CCCCC2)NC(=O)[C@H](Cc2c[nH]cn2)NC(=O)[C@H](Cc2ccccc2)NC(=O)OC(C)(C)C)OC1=O strictly below 1 nM?
Ans. False

Qu. Is IC50 of C[C@@H]1CO[C@H]([C@H](O)[C@H](CC2CCCCC2)NC(=O)[C@H](Cc2c[nH]cn2)NC(=O)[C@H](Cc2ccccc2)NC(=O)OC(C)(C)C)C1 strictly below 1 nM?
Ans. False

Qu. Is IC50 of CC(C)(C)OC(=O)N[C@@H](Cc1ccccc1)C(=O)N[C@@H](Cc1c[nH]cn1)C(=O)N[C@@H](CC1CCCCC1)[C@@H](O)[C@@H]1CN(CCO)C(=O)O1 strictly below 1 nM?
Ans. True

Qu. Is IC50 of CC(C)CN1C[C@@H]([C@H](O)[C@H](CC2CCCCC2)NC(=O)[C@H](Cc2cnc[nH]2)NC(=O)[C@H](Cc2ccccc2)NC(=O)OC(C)(C)C)OC1=O strictly below 1 nM?
Ans. False

Qu. Is IC50 of CCN1C[C@@H]([C@H](O)[C@H](CC2CCCCC2)NC(=O)[C@H](Cc2cnc[nH]2)NC(=O)[C@H](Cc2ccccc2)NC(=O)OC(C)(C)C)NC1=O strictly below 1 nM?
Ans. False

----------
SYSTEM_NAME: Renin (Homo sapiens, UniProt P00797)
ASSAY_REMARKS: In vitro inhibition of human plasma renin.
Type: cell-free
MEASUREMENT_NAME: pIC50
Please keep in mind that pIC50 is minus log10 of the molar concentration; only the number is needed.

Per the records, this compound ( CC(C)(C)OC(=O)N[C@@H](Cc1ccccc1)C(=O)N[C@@H](Cc1cnc[nH]1)C(=O)N[C@@H](CC1CCCCC1)[C@@H](O)[C@@H](O)CNC=O ) has pIC50 equal to 7.20

Per the records, this compound ( CCCN1C[C@@H]([C@H](O)[C@H](CC2CCCCC2)NC(=O)[C@H](Cc2cnc[nH]2)NC(=O)[C@H](Cc2ccccc2)NC(=O)OC(C)(C)C)OC1=O ) has pIC50 equal to 7.92

Per the records, this compound ( CCN1C[C@@H]([C@H](O)[C@H](CC2CCCCC2)NC(=O)[C@H](Cc2cnc[nH]2)NC(=O)[C@H](Cc2ccccc2)NC(=O)OC(C)(C)C)NS1(=O)=O ) has pIC50 equal to 7.89

Per the records, this compound ( CC(C)ON1C[C@@H]([C@H](O)[C@H](CC2CCCCC2)NC(=O)[C@H](Cc2c[nH]cn2)NC(=O)[C@H](Cc2ccccc2)NC(=O)OC(C)(C)C)OC1=O ) has pIC50 equal to 7.59

Per the records, this compound ( CCN1C[C@@H]([C@H](O)[C@H](CC2CCCCC2)NC(=O)[C@H](Cc2cnc[nH]2)NC(=O)[C@H](Cc2ccccc2)NC(=O)OC(C)(C)C)OC1=O ) has pIC50 equal to 8.55

Per the records, this compound ( C[C@H]1C[C@@H]([C@H](O)[C@H](CC2CCCCC2)NC(=O)[C@H](Cc2c[nH]cn2)NC(=O)[C@H](Cc2ccccc2)NC(=O)OC(C)(C)C)OC1=O ) has pIC50 equal to 8.64

----------
SYSTEM_NAME: UniProt P00797
Sequence (P00797 whole entry): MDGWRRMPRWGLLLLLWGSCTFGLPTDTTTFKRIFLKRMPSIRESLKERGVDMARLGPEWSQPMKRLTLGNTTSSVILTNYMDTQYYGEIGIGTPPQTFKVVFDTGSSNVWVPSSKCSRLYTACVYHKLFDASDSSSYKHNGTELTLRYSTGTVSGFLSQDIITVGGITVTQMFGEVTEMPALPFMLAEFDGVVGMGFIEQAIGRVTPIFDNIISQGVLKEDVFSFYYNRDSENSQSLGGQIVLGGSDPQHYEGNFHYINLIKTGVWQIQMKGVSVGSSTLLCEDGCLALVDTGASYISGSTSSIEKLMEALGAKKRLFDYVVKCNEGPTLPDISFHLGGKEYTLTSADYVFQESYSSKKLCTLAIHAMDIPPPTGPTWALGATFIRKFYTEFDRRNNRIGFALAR
ASSAY_REMARKS: In vitro inhibition of purified human renal renin.
I'd appreciate it if you could supply pIC50 values for the items below.
Please keep in mind that pIC50 is minus log10 of the molar concentration; only the number is needed.

Per the records, this compound ( CON1CC([C@H](O)[C@@H](CC2CCCCC2)NC(=O)[C@H](Cc2c[nH]cn2)NC(=O)[C@H](Cc2ccccc2)NC(=O)OC(C)(C)C)OC1=O (single isomer, unassigned) ) has pIC50 equal to 7.37

Per the records, this compound ( CC(C)(C)OC(=O)N[C@@H](Cc1ccccc1)C(=O)N[C@@H](Cc1cnc[nH]1)C(=O)N[C@@H](CC1CCCCC1)[C@@H](O)[C@@H]1CNC(=O)O1 ) has pIC50 equal to 8.33

Per the records, this compound ( CCON1C[C@@H]([C@H](O)[C@H](CC2CCCCC2)NC(=O)[C@H](Cc2cnc[nH]2)NC(=O)[C@H](Cc2ccccc2)NC(=O)OC(C)(C)C)OC1=O ) has pIC50 equal to 8.89

Per the records, this compound ( C=C1C[C@@H]([C@H](O)[C@H](CC2CCCCC2)NC(=O)[C@H](Cc2c[nH]cn2)NC(=O)[C@H](Cc2ccccc2)NC(=O)OC(C)(C)C)OC1=O ) has pIC50 equal to 9.15

Per the records, this compound ( CC(C)(C)OC(=O)N[C@@H](Cc1ccccc1)C(=O)N[C@@H](Cc1cnc[nH]1)C(=O)N[C@@H](CC1CCCCC1)[C@@H](O)[C@@H]1CC(C)(C)C(=O)O1 ) has pIC50 equal to 9.05

Per the records, this compound ( CCN1C[C@@H]([C@H](O)[C@H](CC2CCCCC2)NC(=O)[C@H](Cc2cnc[nH]2)NC(=O)[C@H](Cc2ccccc2)NC(=O)OC(C)(C)C)OC1=O ) has pIC50 equal to 9.20

Per the records, this compound ( CC(C)(C)OC(=O)N[C@@H](Cc1ccccc1)C(=O)N[C@@H](Cc1cnc[nH]1)C(=O)N[C@@H](CC1CCCCC1)[C@@H](O)[C@@H](O)CNC=O ) has pIC50 equal to 8.10

Each recorded value in this set is attributed to ChEMBL document CHEMBL1124786.
